Reference for the values: the supplement of paper PMC5998384

System: HeLa Kyoto
protocol: thermal stability score vs G1/S (z-score of summed log2 fold changes over temperatures); higher = more thermally stable than in G1/S
testSettings: cell cycle stage: mitosis
# reported thermal stability score; entries follow
I'd appreciate a reply containing only the number, no unit.

Ask: Quick one: thermal stability score of MSAPFEERSGVVPCGTPWGQWYQTLEEVFIEVQVPPGTRAQDIQCGLQSRHVALSVGGREILKGKLFDSTIADEGTWTLEDRKMVRIVLTKTKRDAANCWTSLLESEYAADPWVQDQMQRKLTLERFQKENPGFDFSGAEISGNYTKGGPDFSNLEK [NUDCD2] ?
Result: 2.41

Ask: Quick one: thermal stability score of MSCINLPTVLPGSPSKTRGQIQVILGPMFSGKSTELMRRVRRFQIAQYKCLVIKYAKDTRYSSSFCTHDRNTMEALPACLLRDVAQEALGVAVIGIDEGQFFPDIVEFCEAMANAGKTVIVAALDGTFQRKPFGAILNLVPLAESVVKLTAVCMECFREAAYTKRLGTEKEVEVIGGADKYHSVCRLCYFKKASGQPAGPDNKENCPVPGKPGEAVAARKLFAPQQILQCSPAN [TK1] ?
Result: -1.09

----------
# reported melting temperature; entries follow
Test system: HeLa Kyoto
protocol: melting temperature (median over replicates), in situ; higher = more thermally stable
testSettings: cell cycle stage: G1/S
Output spec: scalar in °C, unitless text.

constructSequence	melting temperature / °C
MDAPGALAQTAAPGPGRKELKIVIVGDGGCGKTSLLMVYSQGSFPEHYAPSVFEKYTASVTVGSKEVTLNLYDTAGQEDYDRLRPLSYQNTHLVLICYDVMNPTSYDNVLIKWFPEVTHFCRGIPMVLIGCKTDLRKDKEQLRKLRAAQLEPITYMQGLSACEQIRAALYLECSAKFRENVEDVFREAAKVALSALKKAQRQKKRRLCLLL [RHOF]	53.8

Next sequence, melting temperature to be filled in.
Ask: Lab request: please report melting temperature under test system HeLa Kyoto for MEQPGQDPTSDDVMDSFLEKFQSQPYRGGFHEDQWEKEFEKVPLFMSRAPSEIDPRENPDLACLQSIIFDEERSPEEQAKTYKDEGNDYFKEKDYKKAVISYTEGLKKKCADPDLNAVLYTNRAAAQYYLGNFRSALNDVTAARKLKPCHLKAIIRGALCHLELKHFAEAVNWCDEGLQIDAKEKKLLEMRAKADKLKRIEQRDVRKANLKEKKERNQNEALLQAIKARNIRLSEAACEDEDSASEGLGELFLDGLSTENPHGARLSLDGQGRLSWPVLFLYPEYAQSDFISAFHEDSRFIDHLMVMFGETPSWDLEQKYCPDNLEVYFEDEDRAELYRVPAKSTLLQVLQHQRYFVKALTPAFLVCVGSSPFCKNFLRGRKVYQIR [TTC4]
Result: 49.8

----------
Test system: HeLa Kyoto
protocol: solubility in G1/S (NP-40 vs SDS abundance) (log2 ratio); higher = more soluble
testSettings: cell cycle stage: G1/S
Values of solubility in G1/S (log2) greater than or equal to 0.2 map to YES; values below map to NO.

constructSequence	measuredOn	labelValue
MAGPLRAPLLLLAILAVALAVSPAAGSSPGKPPRLVGGPMDASVEEEGVRRALDFAVGEYNKASNDMYHSRALQVVRARKQIVAGVNYFLDVELGRTTCTKTQPNLDNCPFHDQPHLKRKAFCSFQIYAVPWQGTMTLSKSTCQDA [CST3]	HeLa Kyoto	NO

Ask: Determine whether this sequence has solubility in G1/S (log2) no lower than 0.2: MARGGRGRRLGLALGLLLALVLAPRVLRAKPTVRKERVVRPDSELGERPPEDNQSFQYDHEAFLGKEDSKTFDQLTPDESKERLGKIVDRIDNDGDGFVTTEELKTWIKRVQKRYIFDNVAKVWKDYDRDKDDKISWEEYKQATYGYYLGNPAEFHDSSDHHTFKKMLPRDERRFKAADLNGDLTATREEFTAFLHPEEFEHMKEIVVLETLEDIDKNGDGFVDQDEYIADMFSHEENGPEPDWVLSEREQFNEFRDLNKDGKLDKDEIRHWILPQDYDHAQAEARHLVYESDKNKDEKLTKEEILENWNMFVGSQATNYGEDLTKNHDEL [RCN1]
Result: YES

Ask: Determine whether this sequence has solubility in G1/S (log2) no lower than 0.2: MTYAYLFKYIIIGDTGVGKSCLLLQFTDKRFQPVHDLTIGVEFGARMVNIDGKQIKLQIWDTAGQESFRSITRSYYRGAAGALLVYDITRRETFNHLTSWLEDARQHSSSNMVIMLIGNKSDLESRRDVKREEGEAFAREHGLIFMETSAKTACNVEEAFINTAKEIYRKIQQGLFDVHNEANGIKIGPQQSISTSVGPSASQRNSRDIGSNSGCC [RAB2B]
Result: NO

Ask: Determine whether this sequence has solubility in G1/S (log2) no lower than 0.2: MAAPGLRLGAGRLFEMPAVLERLSRYNSTSQAFAEVLRLPKQQLRKLLYPLQEVERFLAPYGRQDLHLRIFDPSPEDIARADNIFTATERNRIDYVSSAVRIDHAPDLPRPEVCFIGRSNVGKSSLIKALFSLAPEVEVRVSKKPGHTKKMNFFKVGKHFTVVDMPGYGFRAPEDFVDMVETYLKERRNLKRTFLLVDSVVGIQKTDNIAIEMCEEFALPYVIVLTKIDKSSKGHLLKQVLQIQKFVNMKTQGCFPQLFPVSAVTFSGIHLLRCFIASVTGSLD [GTPBP8]
Result: NO

Ask: Determine whether this sequence has solubility in G1/S (log2) no lower than 0.2: MVKLFIGNLPREATEQEIRSLFEQYGKVLECDIIKNYGFVHIEDKTAAEDAIRNLHHYKLHGVNINVEASKNKSKASTKLHVGNISPTCTNQELRAKFEEYGPVIECDIVKDYAFVHMERAEDAVEAIRGLDNTEFQGKRMHVQLSTSRLRTAPGMGDQSGCYRCGKEGHWSKECPVDRTGRVADFTEQYNEQYGAVRTPYTMGYGESMYYNDAYGALDYYKRYRVRSYEAVAAAAAASAYNYAEQTMSHLPQVQSTTVTSHLNSTSVDPYDRHLLPNSGAAATSAAMAAAAATTSSYYGRDRSPLRRAAAMLPTVGEGYGYGPESELSQASAATRNSLYDMARYEREQYVDRARYSAF [RBM4B]
Result: YES

Ask: Determine whether this sequence has solubility in G1/S (log2) no lower than 0.2: MAEGNTLISVDYEIFGKVQGVFFRKHTQAEGKKLGLVGWVQNTDRGTVQGQLQGPISKVRHMQEWLETRGSPKSHIDKANFNNEKVILKLDYSDFQIVK [ACYP1]
Result: YES

----------
System: HeLa Kyoto
protocol: solubility change mitosis vs G1/S (difference of NP-40 vs SDS log2 ratios) (log2 ratio difference); higher = more soluble in mitosis
observable: solubility change mitosis (log2)
I'd appreciate a reply containing only the number, no unit.

constructSequence	reading
MEGLVVAAGGDVSLHNFSARLWEQLVHFHVMRLTDSLFLWVGATPHLRNLAVAMCSRYDSIPVSTSLLGDTSDTTSTGLAQRLARKTNKQVFVSYNLQNTDSNFALLVENRIKEEMEAFPEKF [PSMG4]	-0.0112

Next sequence, solubility change mitosis (log2) to be filled in.
Ask: Quick one: solubility change mitosis (log2) of MTYAYLFKYIIIGDTGVGKSCLLLQFTDKRFQPVHDLTIGVEFGARMVNIDGKQIKLQIWDTAGQESFRSITRSYYRGAAGALLVYDITRRETFNHLTSWLEDARQHSSSNMVIMLIGNKSDLESRRDVKREEGEAFAREHGLIFMETSAKTACNVEEAFINTAKEIYRKIQQGLFDVHNEANGIKIGPQQSISTSVGPSASQRNSRDIGSNSGCC [RAB2B] ?
Result: -0.115

----------
Test system: HeLa Kyoto
protocol: thermal stability score vs G1/S (z-score of summed log2 fold changes over temperatures); higher = more thermally stable than in G1/S
testSettings: cell cycle stage: early G1 (4.5 h after nocodazole release)
observable: thermal stability score

constructSequence	measuredOn	reading
MALKQEMAKSLLKTASLSGRTKLLHQTGLSLYSTSHGFYEEEVKKTLQQFPGGSIDLQKEDNGIGILTLNNPSRMNAFSGVMMLQLLEKVIELENWTEGKGLIVRGAKNTFSSGSDLNAVKSLGTPEDGMAVCMFMQNTLTRFMRLPLISVALVQGWALGGGAEFTTACDFRLMTPESKIRFVHKEMGIIPSWGGTTRLVEIIGSRQALKVLSGALKLDSKNALNIGMVEEVLQSSDETKSLEEAQEWLKQFIQGPPEVIRALKKSVCSGRELYLEEALQNERDLLGTVWGGPANLEAIAKKGKFNK [ECHDC1]	HeLa Kyoto	-1.01
MPSKKKKYNARFPPARIKKIMQTDEEIGKVAAAVPVIISRALELFLESLLKKACQVTQSRNAKTMTTSHLKQCIELEQQFDFLKDLVASVPDMQGDGEDNHMDGDKGARRGRKPGSGGRKNGGMGTKSKDKKLSGTDSEQEDESEDTDTDGEEETSQPPPQASHPSAHFQSPPTPFLPFASTLPLPPAPPGPSAPDEEDEEDYDS [DRAP1]	HeLa Kyoto	-2.19

Next sequence, thermal stability score to be filled in.
Ask: Quick one: thermal stability score of MGLAGVCALRRSAGYILVGGAGGQSAAAAARRYSEGEWASGGVRSFSRAAAAMAPIKVGDAIPAVEVFEGEPGNKVNLAELFKGKKGVLFGVPGAFTPGCSKTHLPGFVEQAEALKAKGVQVVACLSVNDAFVTGEWGRAHKAEGKVRLLADPTGAFGKETDLLLDDSLVSIFGNRRLKRFSMVVQDGIVKALNVEPDGTGLTCSLAPNIISQL [PRDX5] ?
Result: -1.13
